System: NCI-H460 lung
test_description: NCI tumour cell line growth inhibition, 48 h
Recorded TGI values for a group of compounds are listed next.

compound	value_observed
O=C(O)c1cccnc1	> 100 µM

Recall and state the measured TGI for COc1cc(-c2nn(-c3cccc(NC(=O)Nc4ccc(Cl)c(Cl)c4)c3)cc2-c2ccncc2)ccc1Cl .
> 50 µM

Recall and state the measured TGI for O=C1C[C@H]2[C@@H](O1)[C@@H](O)CN1C(=O)c3ccccc3[C@H]21 .
> 100 µM

Recall and state the measured TGI for CS(=O)(=O)CCCn1c(=O)c(Oc2ccc(F)cc2F)cc2cnc(NC3CCOCC3)nc21 .
> 25 µM

Recall and state the measured TGI for O=c1[nH]cc(COCCO)c(=O)[nH]1 .
> 100 µM

Recall and state the measured TGI for Nc1nc2c(ncn2Cc2ccc(CO)cc2)c(=O)[nH]1 .
> 100 µM

Recall and state the measured TGI for CCOP(=O)(O)C(C)(C)NC .
> 100 µM

====

Tested on: IGROV1 ovarian
test_description: NCI tumour cell line growth inhibition, 48 h; in the data active means GI50 below about 0.43 µM; inactive means the rest
Respond only with the outcome that fits, drawn from true (1) (active), false (0) (inactive)

compound	assay_system	discrete_label
Cc1ccc(Cl)cc1Nc1nc(C(F)(F)F)ccc1C(=O)N1CCN(c2cccc(Cl)c2)CC1	IGROV1 ovarian	false (0)
COc1cc(CNCCCN2C(=O)c3ccc4c5c(ccc(c35)C2=O)C(=O)N(CCCNCc2cc(OC)c(OC)c(OC)c2)C4=O)cc(OC)c1OC	IGROV1 ovarian	true (1)
Cc1cn2c(/C=C3\C(=O)Nc4ccc(O)cc43)c(-c3ccc(Cl)cc3)nc2s1	IGROV1 ovarian	false (0)
COc1cc(-c2nn(-c3cccc(NC(=O)Nc4ccc(Cl)c(Cl)c4)c3)cc2-c2ccncc2)ccc1Cl	IGROV1 ovarian	false (0)
Ic1ccc(-n2nnnc2-c2cnoc2-c2ccccc2)cc1	IGROV1 ovarian	false (0)
C[C@H]1Oc2cc(cnc2N)-c2c(nn(C)c2C#N)CN(C)C(=O)c2ccc(F)cc21	IGROV1 ovarian	false (0)
CC1(C)OCCn2c1nc1c(N3CCOCC3)nc(-c3cnc(N)nc3)nc12	IGROV1 ovarian	true (1)
Cn1cc(C2=C(c3cn(C)c4cc(C(N)=O)ccc34)C(=O)NC2=O)c2ccccc21	IGROV1 ovarian	false (0)
COc1cc(C2c3cc4c(cc3C(O)C(CO)C2CO)OCO4)cc(OC)c1OC (stereo not drawn)	IGROV1 ovarian	false (0)
CCCCCCNC(=O)c1nc(-c2ccccc2)oc1Cc1ccc(OP(=O)(O)O)cc1	IGROV1 ovarian	false (0)

Assay outcome for CCN(CC)c1nc(-c2ccc(Cl)cc2Cl)nc2ccccc12 : what was it?
false (0)

Assay outcome for CS(=O)(=O)CCCn1c(=O)c(Oc2ccc(F)cc2F)cc2cnc(NC3CCOCC3)nc21 : what was it?
false (0)

Assay outcome for C=CC(=O)N1CCC(C2CCNc3c(C(N)=O)c(-c4ccc(Oc5ccccc5)cc4)nn32)CC1 (stereo not drawn) : what was it?
false (0)

====

Tested on: OVCAR-5 ovarian
test_description: NCI tumour cell line growth inhibition, 48 h
Recorded TGI values for a group of compounds are listed next.

cpd_smiles	assay_system	TGI
CCN(CC)c1nc(-c2ccc(Cl)cc2Cl)nc2ccccc12	OVCAR-5 ovarian	> 68.1 µM
Cn1cc(C2=C(c3cn(C)c4cc(C(N)=O)ccc34)C(=O)NC2=O)c2ccccc21	OVCAR-5 ovarian	> 25 µM
Cc1ccc(S(=O)(=O)N/N=C/c2oc(-c3ccncc3)c(-c3ccncc3)c2[N+](=O)[O-])cc1	OVCAR-5 ovarian	> 100 µM
Cc1cc(OCc2nnc3n2N=C(c2cc(F)c(Cl)cc2Cl)/C(=C/c2ccc(Cl)cc2)S3)ccc1Cl	OVCAR-5 ovarian	95.5 µM

Now turn to the next compound.
Recall and state the measured TGI for COc1ccc(/C=N/n2c(-c3ccccc3)n[nH]c2=O)cc1 .
> 100 µM
